test system: cancer cell lines; test: Multiplexed cytotoxicity assay: cell proliferation (relative cell count IC50, GI50); type: cell-based; details: Homo sapiens, SW-403, SW403 (Colon)
pIC50: −log10 of the molar value.
Parameter measured: pIC50

[[record]]
structure_smiles = "C[C@]1(C(N)=O)CC[C@@H](n2c(Nc3c(Cl)cc(Cl)cc3Cl)nc3cnc(N[C@@H]4CCOC[C@H]4F)nc32)CC1"
readout_number = 6.76


====

assay: pKa; format: physicochemical
Parameter measured: pKa

[[record]]
molecule = "C[C@]1(C(N)=O)CC[C@@H](n2c(Nc3c(Cl)cc(Cl)cc3Cl)nc3cnc(N[C@@H]4CCOC[C@H]4F)nc32)CC1 [Compound 1]"
readout_number = 5.14


====

Tested on: cancer cell lines
Assay: Multiplexed cytotoxicity assay: cell proliferation (relative cell count IC50, GI50)
Format: cell-based
Conditions: Homo sapiens, SU.86.86, 72 h, SU8686, Pancreas; 72 h
Experimental: Cells are grown in RPMI1640, 10% FBS, 2 mM L-alanyl-L-Glutamine, 1 mM Na pyruvate or a special medium in a humidified atmosphere of 5% CO2 at 37° C. Cells are seeded into 384-well plates and incubated in a humidified atmosphere of 5% CO2 at 37° C. […] Apoptotic cells are detected using an anti-active caspase-3 antibody. Mitotic cells are detected using an anti phospho-histone-3 antibody. […] Sixteen-bit TIFF images are acquired and analyzed with MetaXpress 5.1.0.41 software. […]
Parameter measured: IC50 (nM)

[[record]]
compound = "C[C@]1(C(N)=O)CC[C@@H](n2c(Nc3c(Cl)cc(Cl)cc3Cl)nc3cnc(N[C@@H]4CCOC[C@H]4F)nc32)CC1 [Compound 1]"
readout_number = 132


====

test system: cancer cell lines; assay: Multiplexed cytotoxicity assay: cell proliferation (relative cell count IC50, GI50); assay type: cell-based; settings: Homo sapiens, SNU-5, 72 h, SNU5, Stomach; 72 h
Parameter measured: IC50 (nM)

[[record]]
structure_smiles = "C[C@]1(C(N)=O)CC[C@@H](n2c(Nc3c(Cl)cc(Cl)cc3Cl)nc3cnc(N[C@@H]4CCOC[C@H]4F)nc32)CC1"
assayed_target = "cancer cell lines"
parameter_measured = "IC50"
readout_number = 94.3


====

system: TEAD reporter (8×GTIIC-luciferase) in W138 VA13 cells; assay: TEAD reporter assay; format: cell-based; details: 24 hour assay, cumulative data of three experiments
pIC50: −log10 of the molar value.
Parameter measured: pIC50

[[record]]
structure_smiles = "C[C@]1(C(N)=O)CC[C@@H](n2c(Nc3c(Cl)cc(Cl)cc3Cl)nc3cnc(N[C@@H]4CCOC[C@H]4F)nc32)CC1"
parameter_measured = "pIC50"
result = "< 5.00"


====

Tested on: 64 cancer cell lines
Assay: Anti-proliferative activity across a panel of 64 cancer cell lines (CellTiter-Glo)
Type: cell-based
Conditions: Homo sapiens, SNU-398, 72 h, SNU-398 (Liver)
Procedure: Prior to testing, cells were grown and expanded in culture flasks to provide sufficient amounts of starting material. Cells were then diluted to the appropriate densities and added directly to the compound-spotted 384-well plates. Cells were allowed to grow for 72 h at 37° C./5% CO2. At the time when compound was added (to), initial cell number was assessed via a viability assay (Cell Titer-Glo) by quantifying the level of luminescence generated by ATP present in viable cells. […]
Parameter measured: IC50 (nM)

[[record]]
compound = "C[C@]1(C(N)=O)CC[C@@H](n2c(Nc3c(Cl)cc(Cl)cc3Cl)nc3cnc(N[C@@H]4CCOC[C@H]4F)nc32)CC1 [Compound 1]"
readout_number = 1970


====

test system: cancer cell lines; experiment: Multiplexed cytotoxicity assay: cell proliferation (relative cell count IC50, GI50); type: cell-based; conditions: Homo sapiens, KU812, KU812 (Hematopoietic and lymphoid, Leukemia)
Parameter measured: IC50 (nM)

[[record]]
structure_smiles = "C[C@]1(C(N)=O)CC[C@@H](n2c(Nc3c(Cl)cc(Cl)cc3Cl)nc3cnc(N[C@@H]4CCOC[C@H]4F)nc32)CC1"
parameter_measured = "IC50"
readout_number = 15.9


====

tested on: cancer cell lines; assay: Multiplexed cytotoxicity assay: cell proliferation (relative cell count IC50, GI50); type: cell-based; details: Homo sapiens, MeWo, MEWO (Skin, Melanoma)
Parameter measured: IC50

[[record]]
structure_smiles = "C[C@]1(C(N)=O)CC[C@@H](n2c(Nc3c(Cl)cc(Cl)cc3Cl)nc3cnc(N[C@@H]4CCOC[C@H]4F)nc32)CC1"
parameter_measured = "IC50"
result = "159 nM"


====

system: cancer cell lines; assay: Multiplexed cytotoxicity assay: cell proliferation (relative cell count IC50, GI50); assay type: cell-based; settings: A7 (Skin, Melanoma)
pIC50: −log10 of the molar value.
Parameter measured: pIC50

[[record]]
structure_smiles = "C[C@]1(C(N)=O)CC[C@@H](n2c(Nc3c(Cl)cc(Cl)cc3Cl)nc3cnc(N[C@@H]4CCOC[C@H]4F)nc32)CC1"
readout_number = 5.14


====

Tested on: cancer cell lines
Assay: Multiplexed cytotoxicity assay: cell proliferation (relative cell count IC50, GI50)
Type: cell-based
Conditions: Homo sapiens, SK-N-AS, 72 h, SKNAS, CNS, Neuroblastoma
Experimental: Cells are grown in RPMI1640, 10% FBS, 2 mM L-alanyl-L-Glutamine, 1 mM Na pyruvate or a special medium in a humidified atmosphere of 5% CO2 at 37° C. Cells are seeded into 384-well plates and incubated in a humidified atmosphere of 5% CO2 at 37° C. […] Apoptotic cells are detected using an anti-active caspase-3 antibody. Mitotic cells are detected using an anti phospho-histone-3 antibody. […] Sixteen-bit TIFF images are acquired and analyzed with MetaXpress 5.1.0.41 software. […]
pIC50: −log10 of the molar value.
Parameter measured: pIC50

[[record]]
structure_smiles = "C[C@]1(C(N)=O)CC[C@@H](n2c(Nc3c(Cl)cc(Cl)cc3Cl)nc3cnc(N[C@@H]4CCOC[C@H]4F)nc32)CC1"
assayed_target = "cancer cell lines"
readout_number = 6.88


====

tested on: cancer cell lines; assay: Multiplexed cytotoxicity assay: cell proliferation (relative cell count IC50, GI50); format: cell-based; conditions: Homo sapiens, Daudi, DAUDI (Hematopoietic and lymphoid, Lymphoma)
Parameter measured: IC50

[[record]]
molecule = "C[C@]1(C(N)=O)CC[C@@H](n2c(Nc3c(Cl)cc(Cl)cc3Cl)nc3cnc(N[C@@H]4CCOC[C@H]4F)nc32)CC1 [Compound 1]"
result = "> 10 µM"


====

system: cancer cell lines; experiment: Multiplexed cytotoxicity assay: cell proliferation (relative cell count IC50, GI50); format: cell-based; conditions: Homo sapiens, HT-1376, HT1376 (Bladder)
pIC50: −log10 of the molar value.
Parameter measured: pIC50

[[record]]
molecule = "C[C@]1(C(N)=O)CC[C@@H](n2c(Nc3c(Cl)cc(Cl)cc3Cl)nc3cnc(N[C@@H]4CCOC[C@H]4F)nc32)CC1 [Compound 1]"
readout_number = 5.46


====

tested on: cancer cell lines; assay: Multiplexed cytotoxicity assay: cell proliferation (relative cell count IC50, GI50); format: cell-based; conditions: Homo sapiens, CAL-62, 72 h, CAL62, Endocrine, Thyroid; 72 h
pIC50: −log10 of the molar value.
Parameter measured: pIC50

[[record]]
structure_smiles = "C[C@]1(C(N)=O)CC[C@@H](n2c(Nc3c(Cl)cc(Cl)cc3Cl)nc3cnc(N[C@@H]4CCOC[C@H]4F)nc32)CC1"
parameter_measured = "pIC50"
readout_number = 7.03


====

test system: cancer cell lines; assay: Multiplexed cytotoxicity assay: cell proliferation (relative cell count IC50, GI50); assay type: cell-based; details: Homo sapiens, COLO 205, COLO205 (Colon)
pIC50: −log10 of the molar value.
Parameter measured: pIC50

[[record]]
structure_smiles = "C[C@]1(C(N)=O)CC[C@@H](n2c(Nc3c(Cl)cc(Cl)cc3Cl)nc3cnc(N[C@@H]4CCOC[C@H]4F)nc32)CC1"
readout_number = 7.93


====

test system: 64 cancer cell lines; assay: Anti-proliferative activity across a panel of 64 cancer cell lines (CellTiter-Glo); format: cell-based; settings: Homo sapiens, SK-HEP1, 72 h, SK-HEP-1 (Liver)
pIC50: −log10 of the molar value.
Parameter measured: pIC50

[[record]]
compound = "C[C@]1(C(N)=O)CC[C@@H](n2c(Nc3c(Cl)cc(Cl)cc3Cl)nc3cnc(N[C@@H]4CCOC[C@H]4F)nc32)CC1 [Compound 1]"
assayed_target = "64 cancer cell lines"
readout_number = 5.00


====

assay: Approximate solubility in various solvents at room temperature; assay type: physicochemical; settings: THF, organic solvent or mixture, thermodynamic from solid
Parameter measured: solubility at 1 day

[[record]]
compound = "C[C@]1(C(N)=O)CC[C@@H](n2c(Nc3c(Cl)cc(Cl)cc3Cl)nc3cnc(N[C@@H]4CCOC[C@H]4F)nc32)CC1 [Form A]"
parameter_measured = "solubility at 1 day"
result = "> 100 mg/mL"


====

tested on: 64 cancer cell lines; assay: Anti-proliferative activity across a panel of 64 cancer cell lines (CellTiter-Glo); format: cell-based; settings: Homo sapiens, HepG2, 72 h, HepG2 (Liver)
pIC50: −log10 of the molar value.
Parameter measured: pIC50

[[record]]
compound = "C[C@]1(C(N)=O)CC[C@@H](n2c(Nc3c(Cl)cc(Cl)cc3Cl)nc3cnc(N[C@@H]4CCOC[C@H]4F)nc32)CC1 [Compound 1]"
readout_number = 5.91

